TGT: Disintegrin and metalloproteinase domain-containing protein 17 (Homo sapiens)
METHOD_NOTES: inhibition of ADAM17 peptide cleavage – biochemical, QFRET, primary screen (AID 720648);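 further: 0% = DMSO-only wells as the low control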
TEST_CONTEXT: recombinant ADAM17, EDANS/DABCYL FRET peptide cleavage; at 6.95 µM
Hit rate of the full screen: of about 370,000 compounds, about 3,100 (0.84%) were called active.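 How the source made its calls: active means inhibition above the mean of compounds lying between control limits plus 3 SD, set per campaign (cut at about 8.5% in these data); inactive means the rest.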 The entries come from a sample that favours actives as a whole.
Please reply with one of these outcomes: active, inactive

As a guide, the following entries are already answered.
| COMPOUND | TGT | ASSIGNED_CATEGORY |
| --- | --- | --- |
| CSc1ccc(C=Nn2c(-c3ccc(F)cc3)n[nH]c2=S)cc1 | Disintegrin and metalloproteinase domain-containing protein 17 (Homo sapiens) | inactive |
| CCCCn1nnnc1C(c1cccc(OC)c1OC)N1CCN(C/C=C/c2ccccc2)CC1 (stereo not given) | Disintegrin and metalloproteinase domain-containing protein 17 (Homo sapiens) | inactive |
| COC(=O)[C@]12C[C@H](CC(=O)NCc3ccccc3)C(=O)N(CCC3=CCCCC3)C1=C[C@H](C(C)C)O[C@@H]2C1CC1 | Disintegrin and metalloproteinase domain-containing protein 17 (Homo sapiens) | inactive |
| Cc1cccc([C@@H]2[C@@H]3C(=O)N(Cc4ccccc4)C(=O)[C@@H]3[C@]3(Cc4ccc(Cl)cc4)C(=O)N(c4cccc(Cl)c4)C(=O)N23)c1 | Disintegrin and metalloproteinase domain-containing protein 17 (Homo sapiens) | inactive |
| CCCCNC(=O)C[C@H]1C[C@@]2(C(=O)OC)C(=C[C@H](COCc3ccccc3)O[C@@H]2C)N(Cc2ccc(Cl)cc2Cl)C1=O | Disintegrin and metalloproteinase domain-containing protein 17 (Homo sapiens) | inactive |
| CC(C)CNS(=O)(=O)CC1NCCc2ccccc21 (stereo not given) | Disintegrin and metalloproteinase domain-containing protein 17 (Homo sapiens) | inactive |

As a next step, examine the compound that follows.
-- ask What classification did COc1ccc(-n2c(SCC(=O)NC3CCCC3)nnc2-c2ccncc2)cc1 end up with in this test?
-- reply inactive

====

TGT: Disintegrin and metalloproteinase domain-containing protein 17 (Homo sapiens)
METHOD_NOTES: inhibition of ADAM17 peptide cleavage – biochemical, QFRET, primary screen (AID 720648);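 further: 0% = DMSO-only wells as the low control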
TEST_CONTEXT: recombinant ADAM17, EDANS/DABCYL FRET peptide cleavage; at 6.95 µM; hits give high values
Among all 370,000 compounds or so, about 3,100 (0.84%) were called active. This excerpt belongs to a sample that is enriched for actives.
inhibition values for the compounds below.
Please give a number only; it is taken to be in %.

| COMPOUND | UNIT_OF_MEASUREMENT | inhibition |
| --- | --- | --- |
| Cc1ccc(CN2CCCCC(NC(=O)C3CCCCC3)C2=O)cc1 (stereo unspecified) | % | 1.84 |
| Cc1cccc(OCCCC(=O)Nc2ccc(S(=O)(=O)N3CCCC3)cc2)c1 | % | 3.89 |
| O=C(Nc1ccccc1C(=O)NCCCn1ccnc1)c1ccc(Cl)cc1Cl | % | 2.53 |
| CCCCN1CCN(C(=O)c2ccc3c(c2)NC(=O)C(C)(C)O3)CC1 | % | 1.41 |

-- ask Please give the documented inhibition of Cc1ccc(C)c(OCCC(=O)Nc2cccc(S(=O)(=O)N3CCCC3)c2)c1
-- reply 1.33

-- ask Entry CC(=O)Nc1ccc(S(=O)(=O)N2CCN(CCCOc3cc(C)ccc3C)CC2)cc1 needs its inhibition filled in; supply it.
-- reply 9.18

====

TGT: Disintegrin and metalloproteinase domain-containing protein 17 (Homo sapiens) (UniProt P78536)
Sequence (P78536 215-824 limits assumed): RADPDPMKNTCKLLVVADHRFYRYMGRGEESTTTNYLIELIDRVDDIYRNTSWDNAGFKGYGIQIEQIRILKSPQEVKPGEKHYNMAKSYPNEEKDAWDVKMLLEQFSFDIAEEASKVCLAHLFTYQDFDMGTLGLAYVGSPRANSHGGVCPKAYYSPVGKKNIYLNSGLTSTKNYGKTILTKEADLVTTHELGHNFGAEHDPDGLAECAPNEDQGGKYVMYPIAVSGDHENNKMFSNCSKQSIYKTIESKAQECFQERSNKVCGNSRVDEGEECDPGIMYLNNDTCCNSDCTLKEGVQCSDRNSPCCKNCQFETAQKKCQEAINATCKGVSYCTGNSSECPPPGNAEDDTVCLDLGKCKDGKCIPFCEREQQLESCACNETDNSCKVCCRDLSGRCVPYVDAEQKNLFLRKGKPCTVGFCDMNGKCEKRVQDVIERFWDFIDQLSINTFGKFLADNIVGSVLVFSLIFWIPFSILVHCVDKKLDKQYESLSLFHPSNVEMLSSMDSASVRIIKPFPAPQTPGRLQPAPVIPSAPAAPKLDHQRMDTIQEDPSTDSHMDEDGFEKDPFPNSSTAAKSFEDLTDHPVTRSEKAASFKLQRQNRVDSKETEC
METHOD_NOTES: inhibition of ADAM17 peptide cleavage – biochemical, QFRET, primary screen (AID 720648);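 further: 0% = DMSO-only wells as the low control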
TEST_CONTEXT: recombinant ADAM17, EDANS/DABCYL FRET peptide cleavage; at 6.95 µM; hits give high values
About 3,100 (0.84%) of roughly 370,000 compounds were called active. The entries come from a sample that favours actives as a whole.
ENDPOINT: inhibition (%)
# number only, unit % dropped from output

| COMPOUND | UNIT_OF_MEASUREMENT | NUMBER |
| --- | --- | --- |
| Cc1ccc(-n2c(SCC(=O)Nc3ccc(S(=O)(=O)Nc4nccs4)cc3)nnc2-c2cccnc2)cc1 | % | 5.12 |

-- ask Give a short answer stating reported inhibition for FC(F)(F)c1cccc(NC(=S)OC2CCC23CCC(c2ccccc2)CC3)c1 (centres undefined) .
-- reply 4.59

-- ask Determine from records and report inhibition for COC(=O)[C@]12C[C@H](CC(=O)NCc3ccccc3)C(=O)N(CCc3ccc(OC)c(OC)c3)C1=C[C@H](C(C)(C)C)O[C@@H]2C
-- reply 7.1

-- ask Could you please provide reported inhibition for COc1cccc(Cn2cc(COC(=O)Nc3ccc(F)cc3)nn2)c1 ? Thanks!
-- reply -1.05

-- ask Report inhibition, nothing else, for this compound: C=CC(COCc1ccccc1)N(CC(=O)OC)S(=O)(=O)c1cc(Br)ccc1OC (centres undefined)
-- reply 9.3

-- ask Output measured inhibition for this item: COc1ccc(/C=C/C(=O)OCC(=O)N2CCN(S(=O)(=O)c3ccc(C)cc3C)CC2)cc1OC
-- reply -6.61

-- ask Dear colleague, please send me the reported inhibition for O=C(CSc1nc(-c2ccccc2)cs1)Nc1cccc([N+](=O)[O-])c1 when you can.
-- reply 8.67

-- ask Indicate its recorded inhibition; the compound in question is Cc1ccc(S(=O)(=O)N2CCN(C(=O)COC(=O)CNC(=O)c3ccc(C(C)(C)C)cc3)CC2)c(C)c1
-- reply -2.11

-- ask Report inhibition for COc1ccc(S[C@]2(C(=O)N(C)C)CC(=O)N(c3ccc(OC)cc3)[C@@H]2c2ccc(OC)cc2)cc1
-- reply 3.23

====

TGT: Disintegrin and metalloproteinase domain-containing protein 17 (Homo sapiens) (UniProt P78536)
METHOD_NOTES: inhibition of ADAM17 peptide cleavage – biochemical, QFRET, primary screen (AID 720648);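 further: 0% = DMSO-only wells as the low control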
TEST_CONTEXT: recombinant ADAM17, EDANS/DABCYL FRET peptide cleavage; at 6.95 µM
Among all 370,000 compounds or so, about 3,100 (0.84%) were called active.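 The calls were made as follows: active = inhibition above the mean of compounds lying between control limits plus 3 SD, set per campaign (cut at about 8.5% in these data); inactive = the rest.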 Only a selection was taken, and actives are over-represented in it overall.
Lab note: assign the record to one of 1 (yes) for active, 0 (no) for inactive

These recorded examples may help you get a feel for the data.
| COMPOUND | ASSIGNED_CATEGORY |
| --- | --- |
| O=Nc1c(O)cc(O)c2ccccc12 | 1 (yes) |
| C=CC[C@@H](Cc1ccc(F)cc1)C(=O)OC[C@H]1CCCN1C(=O)[C@H](CC=C)CC(=O)N(CCO)Cc1ccccc1 | 0 (no) |
| CC(C)CNC(=O)OCc1cn(Cc2ccc(F)cc2)nn1 | 0 (no) |
| CCC(c1ccc(NC(=O)OC(C)(C)C)cc1)c1cc(OC)cc(OC)c1 (stereo not given) | 0 (no) |
| COc1ccc(Cn2ccc3ccc(-c4ccc5ccn(Cc6ccccc6C)c5c4)cc32)cc1 | 0 (no) |

-- ask Answer briefly: the call reported for Cc1ccc(NC(=S)NNC(=O)CSc2nnc(SCc3ccccc3Cl)s2)cc1 in this assay.
-- reply 1 (yes)

-- ask Entry O=C1Nc2ccccc2OC1CC(=O)N1CCCCCCC1 (stereo not given) : call = ?
-- reply 0 (no)

-- ask Which outcome was entered for the compound O=C(CSc1nnc(SCc2ccc(Cl)cc2)s1)N/N=C/c1ccccc1Cl in this test?
-- reply 0 (no)

-- ask Called result for Cc1cc(-c2ccc(C)c(S(=O)(=O)NCCCN(Cc3ccccc3)C(C)C)c2)on1
-- reply 0 (no)

-- ask Hi, sorry to bother you, what did the test record for CN(NS(=O)(=O)c1cccs1)c1ncc(C(F)(F)F)cc1Cl ?
-- reply 0 (no)

-- ask Please share the test call associated with O=C(COC(=O)CCCSc1nc2ccccc2[nH]1)Nc1ccc(Oc2ccccc2)cc1 .
-- reply 1 (yes)

-- ask Assay outcome for C[C@H]1CN(c2ccc(Br)cc2)C(=O)[C@@H]1CC(=O)Nc1ccc(Br)cc1 : what was it?
-- reply 0 (no)

-- ask Identify the outcome logged in this assay for the compound shown: CCN(CC)C(=O)CC[C@@H]1CC[C@]2(CCCN(S(=O)(=O)C3CCCCC3)C2)O1
-- reply 0 (no)

====

TGT: Disintegrin and metalloproteinase domain-containing protein 17 (Homo sapiens)
METHOD_NOTES: inhibition of ADAM17 peptide cleavage – biochemical, QFRET, primary screen (AID 720648);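 further: 0% = DMSO-only wells as the low control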
TEST_CONTEXT: recombinant ADAM17, EDANS/DABCYL FRET peptide cleavage; at 6.95 µM
Screen size: about 370,000 compounds; about 3,100 (0.84%) were called active.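 Rule for the calls: active = inhibition above the mean of compounds lying between control limits plus 3 SD, set per campaign (cut at about 8.5% in these data); inactive = the rest.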 What follows is part of a selection rich in actives, with near analogues and random picks from the rest.
A correct response names exactly one class from active, inactive

// known answers, use as guide
| SMILES_STR | ASSIGNED_CATEGORY |
| --- | --- |
| CCOc1ccc(OCC)c(-c2c(=O)n(OCc3ccc(Cl)cc3)c3ccccc3[n+]2[O-])c1 | active |
| O=C(CSc1nnc(-c2ccccn2)n1-c1ccc(Cl)cc1)Nc1ccccc1-c1ccccc1 | inactive |

-- ask Query: recorded result category for CCOC(=O)[C@]12CCCC3=C1N(CCC3)C(=O)[C@@H](CC(=O)NCC13CC4CC(CC(C4)C1)C3)C2 in this test
-- reply inactive

-- ask Hi team, can someone confirm the assay call for COC(=O)C[C@@H]1CC[C@H]2[C@@H](COc3ccc(NS(=O)(=O)CC(F)(F)F)cc3C(=O)N2C)O1 ?
-- reply inactive

-- ask // outcome(item) with item = c1csc(-c2nnc(SCc3nc4ccccc4[nH]3)o2)c1
-- reply inactive

-- ask Per the assay record, what outcome was assigned to CCOC(=O)[C@]12CCCC=C1N(CCCOC)C(=O)[C@@H]2CC(=O)N1CCOCC1 ?
-- reply inactive

-- ask Tell me the assay call for COc1ccc(OC)c(-c2c(=O)n(OCc3ccccc3Br)c3ccccc3[n+]2[O-])c1 please.
-- reply inactive

-- ask Outcome? O=C(OCC#CCSc1nnc(-c2ccco2)o1)c1ccc(F)cc1
-- reply inactive

-- ask Query: recorded result category for CCOC(=O)[C@]12CCCC3=C1N(CCC3)C(=O)[C@@H](CC(=O)N1CCSCC1)C2 in this test
-- reply inactive
